Molecular target: human GGT expressed in Pichia pastoris (Homo sapiens, UniProt P19440)
Construct: The soluble domain of human GGT (amino acids 28-569) was amplified by PCR; His6 (TEV protease-cleavable) (N, cleaved yes); made in house; host or cells: Pichia pastoris strain X-33 (pPICZαA, plasmid pMW-102), secreted
Sequence (P19440 28-569): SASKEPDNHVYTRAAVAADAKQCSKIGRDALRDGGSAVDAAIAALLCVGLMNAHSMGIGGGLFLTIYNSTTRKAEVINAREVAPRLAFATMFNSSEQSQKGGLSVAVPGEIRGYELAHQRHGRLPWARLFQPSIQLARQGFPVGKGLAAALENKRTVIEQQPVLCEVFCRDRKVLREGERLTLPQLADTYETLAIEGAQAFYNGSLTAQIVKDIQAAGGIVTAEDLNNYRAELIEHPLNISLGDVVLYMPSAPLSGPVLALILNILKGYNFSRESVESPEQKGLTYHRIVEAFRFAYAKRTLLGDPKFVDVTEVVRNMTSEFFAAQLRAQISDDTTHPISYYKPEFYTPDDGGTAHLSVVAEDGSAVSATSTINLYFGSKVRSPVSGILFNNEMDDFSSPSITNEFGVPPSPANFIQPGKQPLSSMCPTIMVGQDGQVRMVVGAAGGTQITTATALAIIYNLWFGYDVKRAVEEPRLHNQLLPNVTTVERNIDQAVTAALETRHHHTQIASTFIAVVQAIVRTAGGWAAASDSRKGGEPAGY
Assay: GGT kinetic assay with purified human GGT expressed in Pichia pastoris
Format: biochemical
Conditions: glygly varied, 3 mM GpNA; read-out: appKi as a competitive inhibitor of glygly
Text: The soluble domain of human GGT (amino acids 28-569) was amplified by PCR. […] The concentrations of the substrate GpNA and the acceptor Gly-Gly were varied as indicated. […] The reaction was monitored as described for the high throughput screening. Initial velocity data were first analyzed graphically using double-reciprocal plots of initial velocities versus substrate concentration and suitable secondary plots. […]
Recorded Endpoint: Ki

Task: Quick check: Ki of COc1ccc(Cc2nnc(NS(=O)(=O)c3ccccc3)s2)cc1 [Compound 3] ?
Output: 25 µM
